Listed here: items and their measured half-life.
Assay: Pharmacokinetic assay in mice
Type: in vivo
Conditions: male, ICR, mouse, plasma, oral intragastric administration, 10 mg/kg
Give just the numeric value; min need not be written.

Molecular string: O=C(Nc1ccc[n+]([O-])c1)c1c(Oc2ccc(F)c3c2OC(F)(F)O3)cc(C(F)(F)F)c(Cl)c1F
Units of measure: min
half-life: 131
--
Molecular string: [2H]C([2H])([2H])Oc1cc(OC(F)(F)F)ccc1Oc1cc(Cl)c(Cl)cc1C(=O)Nc1cnc[n+]([O-])c1
Units of measure: min
half-life: 107

half-life reported for this compound O=C(Nc1cnc[n+]([O-])c1)c1cc(Cl)c(Cl)cc1Oc1ccc(OC(F)(F)F)cc1 : 164
